Source of measurements: patent US11673889B2

- target.or.test.system: ENPP-1, MDA-MB-231 cells (Homo sapiens, UniProt P22413)
- Sequence (P22413 1-925): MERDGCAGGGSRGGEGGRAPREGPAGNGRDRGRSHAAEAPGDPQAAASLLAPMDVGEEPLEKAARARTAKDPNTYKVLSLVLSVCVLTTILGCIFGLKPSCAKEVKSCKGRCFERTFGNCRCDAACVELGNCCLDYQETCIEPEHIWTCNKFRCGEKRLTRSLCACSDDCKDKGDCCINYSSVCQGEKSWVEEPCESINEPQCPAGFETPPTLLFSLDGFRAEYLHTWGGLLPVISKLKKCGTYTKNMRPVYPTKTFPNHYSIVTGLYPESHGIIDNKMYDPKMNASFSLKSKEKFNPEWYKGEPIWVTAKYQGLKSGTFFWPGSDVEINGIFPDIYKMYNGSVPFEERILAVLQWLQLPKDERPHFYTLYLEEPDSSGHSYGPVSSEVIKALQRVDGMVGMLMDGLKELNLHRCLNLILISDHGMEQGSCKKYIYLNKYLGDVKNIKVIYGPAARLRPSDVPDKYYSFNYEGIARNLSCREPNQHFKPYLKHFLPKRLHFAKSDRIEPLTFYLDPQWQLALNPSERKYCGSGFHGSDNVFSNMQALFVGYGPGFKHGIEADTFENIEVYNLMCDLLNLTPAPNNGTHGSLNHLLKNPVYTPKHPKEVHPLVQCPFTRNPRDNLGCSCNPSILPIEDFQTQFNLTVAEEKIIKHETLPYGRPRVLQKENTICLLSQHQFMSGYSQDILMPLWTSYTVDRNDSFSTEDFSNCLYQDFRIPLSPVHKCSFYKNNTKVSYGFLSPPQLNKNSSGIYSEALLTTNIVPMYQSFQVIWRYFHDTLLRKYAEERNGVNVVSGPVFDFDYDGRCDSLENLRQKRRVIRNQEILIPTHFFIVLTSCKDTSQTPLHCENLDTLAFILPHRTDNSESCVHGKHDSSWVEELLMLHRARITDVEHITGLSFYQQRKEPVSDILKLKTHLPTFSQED
Just a reminder that ties go to Not fulfilled: only IC50 strictly below 400 nM counts as Fulfilled.

[[record]]
compound_smiles = "COc1ccc2c(ncc3nc(C4CN(S(C)(=O)=O)C4)n(Cc4ccc(S(N)(=O)=O)c(F)c4)c32)n1"
label_value = "Not fulfilled"

[[record]]
compound_smiles = "COc1ccc2c(n1)nc(C)c1ncn(Cc3ccc(S(N)(=O)=O)cn3)c12"
label_value = "Fulfilled"

[[record]]
compound_smiles = "COc1ccc2c(ncc3nc(C)n(Cc4ccc(S(N)(=O)=O)nc4)c32)n1"
label_value = "Fulfilled"

[[record]]
compound_smiles = "COc1ccc2c(ncc3[nH]c(=O)n(Cc4c(F)cc(S(N)(=O)=O)cc4F)c32)n1"
label_value = "Fulfilled"

[[record]]
compound_smiles = "COc1ccc2c(ncc3ncn(Cc4ccc(S(N)(=O)=O)cc4C#N)c32)n1"
label_value = "Not fulfilled"


Request: # strict comparison: is reported IC50 < 400 nM? input = COCCc1nc2c(C)nc3nc(OC)ccc3c2n1Cc1cc(F)c(S(N)(=O)=O)cc1F
Response: Not fulfilled

Request: And then COc1ccc2c(ncc3[nH]c(=O)n(Cc4c(F)cc(S(=O)(=O)NC(C)=O)cc4F)c32)n1 , what is it?
Response: Not fulfilled

Request: And then COc1ccc2c(ncc3[nH]c(=O)n(Cc4ccc(P(=O)(O)O)c(F)c4)c32)n1 , what is it?
Response: Fulfilled
